Sourced from paper PMC4887995

target: UniProtKB Q9ERZ8
pIC50: −log10 of the molar value.
Below, each entry is listed with its recorded pIC50.
reportedProperty: pIC50

> print(dat)
                                   compound  measuredresult
1  CN(CCc1ccc(Nc2nc(-c3ccccc3)cs2)cc1)Cc1ccccc1            6.35
2  CN(CCc1ccc(Nc2nc(-c3cccnc3)cs2)cc1)Cc1ccccc1 [GSK205, reference compound]            5.38

###

pIC50: −log10 of the molar value.
Reported pIC50 values, TRPA1 (Mus musculus).
reportedProperty: pIC50

> print(dat)
                                   molecule            measuredon  resultcomparator  measuredresult
1  CCN(CCc1ccc(Nc2nc(-c3cccnc3)cs2)cc1)Cc1ccccc1 [16-18]  TRPA1 (Mus musculus)                 <            4.60
2  CN(CCc1ccc(Nc2nc(-c3cccnc3)cs2)cc1)Cc1ccccc1 [GSK205, reference compound]  TRPA1 (Mus musculus)                 =            5.25

###

target: TRPV4 (Rattus norvegicus, UniProt Q9ERZ8); conditions: 5 μM inhibitor, GSK101 5 nM, ≈100 cells; vehicle control 1156
Sequence (Q9ERZ8 whole entry): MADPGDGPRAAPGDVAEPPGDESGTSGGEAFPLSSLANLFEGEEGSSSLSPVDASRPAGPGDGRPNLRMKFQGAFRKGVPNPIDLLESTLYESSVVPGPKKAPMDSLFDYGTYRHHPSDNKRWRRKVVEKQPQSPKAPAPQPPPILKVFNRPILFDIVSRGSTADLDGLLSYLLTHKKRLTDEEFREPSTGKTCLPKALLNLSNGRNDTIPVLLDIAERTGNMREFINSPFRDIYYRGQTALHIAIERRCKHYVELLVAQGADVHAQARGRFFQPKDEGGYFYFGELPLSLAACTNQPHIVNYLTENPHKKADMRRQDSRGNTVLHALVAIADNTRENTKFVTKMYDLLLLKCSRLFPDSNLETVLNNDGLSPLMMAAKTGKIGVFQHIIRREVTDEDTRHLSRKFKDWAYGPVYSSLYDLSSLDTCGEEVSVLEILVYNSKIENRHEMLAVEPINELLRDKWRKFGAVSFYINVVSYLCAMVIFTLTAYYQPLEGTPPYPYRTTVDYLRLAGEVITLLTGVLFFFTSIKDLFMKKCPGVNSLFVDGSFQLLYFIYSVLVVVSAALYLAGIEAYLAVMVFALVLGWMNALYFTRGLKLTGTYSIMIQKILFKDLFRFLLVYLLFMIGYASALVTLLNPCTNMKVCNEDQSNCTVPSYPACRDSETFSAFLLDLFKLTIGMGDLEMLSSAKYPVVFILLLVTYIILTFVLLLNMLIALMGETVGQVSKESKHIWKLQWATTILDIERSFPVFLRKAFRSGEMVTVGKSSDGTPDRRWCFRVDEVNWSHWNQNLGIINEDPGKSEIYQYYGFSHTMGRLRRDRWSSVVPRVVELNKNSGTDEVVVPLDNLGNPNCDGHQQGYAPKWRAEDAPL
Listing: average peak ∆Ca++ concentration of selected molecules
reportedProperty: average peak ∆Ca++ concentration (nM)

> print(dat)
                                   molecule                                measuredon  measuredresult
1  CN(CCc1ccc(Nc2nc(-c3ccncc3)cs2)cc1)Cc1ccccc1 [16-13]  TRPV4 (Rattus norvegicus, UniProt Q9ERZ8)              52
2  CN(CCc1ccc(Nc2nc(-c3cccnc3)cs2)cc1)c1ccccc1 [16-16]  TRPV4 (Rattus norvegicus, UniProt Q9ERZ8)             263
3  CN(CCc1ccc(Nc2nc(-c3ccccc3)cs2)cc1)Cc1ccccc1 [16-8]  TRPV4 (Rattus norvegicus, UniProt Q9ERZ8)               6
4  CN(CCc1ccc(Nc2nc(-c3cccnc3)cs2)cc1)Cc1ccccc1 [GSK205, reference compound]  TRPV4 (Rattus norvegicus, UniProt Q9ERZ8)             650
5  CN(CCc1ccc(Nc2ncc(-c3cccnc3)s2)cc1)Cc1ccccc1 [16-43C]  TRPV4 (Rattus norvegicus, UniProt Q9ERZ8)            1210
6  CCN(CCc1ccc(Nc2nc(-c3ccccc3)cs2)cc1)Cc1ccccc1 [16-19]  TRPV4 (Rattus norvegicus, UniProt Q9ERZ8)               8
7  CN(CCc1ccc(Nc2nc(-c3ccccn3)cs2)cc1)Cc1ccccc1 [16-14]  TRPV4 (Rattus norvegicus, UniProt Q9ERZ8)             558
8  CN(CCc1ccc(Nc2nc(-c3cccnc3)cs2)cc1)CCc1cccnc1 [16-12]  TRPV4 (Rattus norvegicus, UniProt Q9ERZ8)            39.5
9  CCN(CCc1ccc(Nc2nc(-c3cccnc3)cs2)cc1)Cc1ccccc1 [16-18]  TRPV4 (Rattus norvegicus, UniProt Q9ERZ8)              14
